- EXPERIMENTAL TARGET: GK-WT (Homo sapiens, UniProt P35557)
- ASSAY REMARKS: D-glucose binding by tryptophan fluorescence titration
- SETUP CONDITIONS: glucose KD, 11 °C; absence of glycerol
PROPERTY MEASURED: Kd
The reply must contain the numeric value and, after it, the unit.

Suppose we examine the molecule OC[C@H]1OC(O)[C@H](O)[C@@H](O)[C@@H]1O (stereo partly shown) ; what Kd value has been reported?
13.7 mM

* * *

- EXPERIMENTAL TARGET: GK-W99 (W167F/W257F) (Homo sapiens, UniProt P35557, W167F/W257F)
- ASSAY REMARKS: D-glucose binding by tryptophan fluorescence titration
- SETUP CONDITIONS: W-99, no GKA, 20% glycerol
PROPERTY MEASURED: Kd (mM)
Give your result in mM as a bare value.

Suppose we examine the molecule OC[C@H]1OC(O)[C@H](O)[C@@H](O)[C@@H]1O (stereo partly shown) ; what Kd value has been reported?
4.06

* * *

- EXPERIMENTAL TARGET: GK-W99 (W167F/W257F) (Homo sapiens, UniProt P35557, W167F/W257F)
- Sequence (P35557 1-465 W167F/W257F): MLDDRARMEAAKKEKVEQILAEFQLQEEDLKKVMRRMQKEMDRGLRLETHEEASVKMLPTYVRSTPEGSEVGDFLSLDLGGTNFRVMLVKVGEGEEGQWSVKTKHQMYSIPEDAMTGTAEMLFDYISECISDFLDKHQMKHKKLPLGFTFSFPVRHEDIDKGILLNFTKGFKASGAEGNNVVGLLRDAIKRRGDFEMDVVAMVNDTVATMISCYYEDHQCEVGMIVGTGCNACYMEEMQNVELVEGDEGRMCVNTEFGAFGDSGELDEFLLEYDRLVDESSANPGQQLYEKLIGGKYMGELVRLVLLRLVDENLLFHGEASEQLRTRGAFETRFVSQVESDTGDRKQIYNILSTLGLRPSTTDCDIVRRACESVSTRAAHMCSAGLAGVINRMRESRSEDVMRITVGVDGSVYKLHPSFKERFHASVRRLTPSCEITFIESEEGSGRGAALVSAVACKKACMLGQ
- ASSAY REMARKS: D-glucose binding by tryptophan fluorescence titration
- SETUP CONDITIONS: W-99, no GKA, no glycerol
PROPERTY MEASURED: Kd (mM)
Give your result in mM as a bare value.

Suppose we examine the compound OC[C@H]1OC(O)[C@H](O)[C@@H](O)[C@@H]1O (stereo partly shown) ; what Kd value has been reported?
18.8

* * *

- EXPERIMENTAL TARGET: GK-WT (Homo sapiens, UniProt P35557)
- ASSAY REMARKS: D-glucose binding by tryptophan fluorescence titration
- SETUP CONDITIONS: D-glucose binding KD, GK-WT; no GKA; 20% glycerol
PROPERTY MEASURED: Kd (µM)
Give your result in µM as a bare value.

Suppose we examine the compound OC[C@H]1OC(O)[C@H](O)[C@@H](O)[C@@H]1O (stereo partly drawn) [D-glucose] ; what Kd value has been reported?
1800

* * *

- EXPERIMENTAL TARGET: GK-WT (Homo sapiens)
- ASSAY REMARKS: D-glucose binding by tryptophan fluorescence titration
- SETUP CONDITIONS: glucose KD, 45 °C; presence of glycerol
PROPERTY MEASURED: Kd (mM)
Give your result in mM as a bare value.

Suppose we examine the compound OC[C@H]1OC(O)[C@H](O)[C@@H](O)[C@@H]1O (stereo partly shown) ; what Kd value has been reported?
1.15
